Hey, just so you know, these numbers are from paper PMC9959269.

- target-or-test-system: hCA I (Homo sapiens)
- Construct: made in house
- measurement-protocol: Stopped flow CO2 hydrase assay, hCA I inhibition
- Format: biochemical
- run-conditions: stopped flow technique; means ± SEM of 3 different assays; recombinant hCA I; read-out: Ki CA I
experimental-endpoint: Ki (µM)

1. Cc1ccc(Cn2cccc2/C=C/C(=O)/C=C(\O)C(=O)O)cc1 [Compound 1c]	79
2. O=C(/C=C(\O)C(=O)O)/C=C/c1cccn1Cc1ccccc1F [Compound 1b]	89.6

* * *

- target-or-test-system: hCA I (Homo sapiens, UniProt P00915)
- Sequence (P00915 whole entry): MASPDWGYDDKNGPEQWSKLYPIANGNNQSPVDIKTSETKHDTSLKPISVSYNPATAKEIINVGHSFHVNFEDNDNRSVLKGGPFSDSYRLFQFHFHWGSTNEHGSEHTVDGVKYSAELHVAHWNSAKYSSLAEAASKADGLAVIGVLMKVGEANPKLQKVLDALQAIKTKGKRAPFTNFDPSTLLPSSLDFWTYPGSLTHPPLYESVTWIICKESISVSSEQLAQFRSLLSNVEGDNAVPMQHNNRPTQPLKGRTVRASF
- measurement-protocol: Stopped flow CO2 hydrase assay, hCA I inhibition
- run-conditions: stopped flow technique; means ± SEM of 3 different assays; recombinant hCA I; read-out: Ki CA I
Item-by-item account of Ki

Consider the reported Ki for these compounds:
1) O=C(O)/C(O)=C/C(=O)c1cn(Cc2ccc(F)cc2)cc1-c1ccccc1	> 100 µM
2) CCOC(=O)/C(O)=C/C(=O)c1cn(Cc2ccc(F)cc2)cc1-c1ccccc1	> 100 µM

# context switch: different compound, same Ki
Supply reported Ki belonging to this compound: CCOC(=O)/C(O)=C/C(=O)/C=C/c1cn(Cc2ccc(OC)cc2)c2ccccc12
> 100 µM

* * *

Measured Ki accompanies every entry in the list below.
- target-or-test-system: UniProt P00915
- measurement-protocol: Stopped flow CO2 hydrase assay, hCA I inhibition
- run-conditions: stopped flow technique; means ± SEM of 3 different assays; recombinant hCA I; read-out: Ki CA I

1) CCOC(=O)/C(O)=C/C(=O)/C=C/c1cn(Cc2ccc(F)cc2)cc1-c1ccccc1 [Compound 6]	> 100 µM
2) CCOC(=O)/C(O)=C/C(=O)/C=C/c1cccn1Cc1ccc(C)cc1 [Compound 2c]	> 100 µM

# evaluate next
Tell me Ki reported for CCOC(=O)/C(O)=C/C(=O)/C=C/c1cccn1Cc1ccccc1F [Compound 2b]
> 100 µM
